- experimental.system: human IFN-α1 (human, UniProt P0DY56 24-189)
- Sequence (P0DY56 entry or part of it limits assumed): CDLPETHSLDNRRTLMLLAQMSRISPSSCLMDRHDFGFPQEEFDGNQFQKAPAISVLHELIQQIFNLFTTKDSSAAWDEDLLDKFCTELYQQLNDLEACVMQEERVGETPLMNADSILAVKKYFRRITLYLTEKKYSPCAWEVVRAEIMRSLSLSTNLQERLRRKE
- assay.info: cell-based or functional assay
Below, each entry is listed alongside its reported IC 50 (ng/ml), ISRE dual luciferase reporter assay.
Give just the number in ng/mL; leave the unit off.

26B9 (antibody, human IgG1, kappa, V domains shown, human-derived IgG1, kappa; also called MAB 26B9; hMAB 26B9) VH: QILLQESGPGLVKPTETLSLTCSVSGDSISDSSHYWAWIRQPPGKGPEWIGSVYFSSMTHYNPSLKSRVSISVDKPKNQFSLKVTSVTVADTATYYCARQALARVGAMNWFDPWGQGSLVTVSS VL: DIIMTQSPDSLPVSLGEGVTINCKSSQSVFFTSSNKSCLAWYQQKPGKSPKLLIYWASTRQSGVPDRFRGSGSGTDFSLTITSLQAEDVAVYFCQQCQTSPPTFGGGTRLEIKR = 8.6
50E11 (antibody, human IgG1, kappa, V domains shown) VH: QVQLVQSGAEMKKPGSSVKVSCKDFGGTFSVYGVNWVRQAPGQGLEWMGGLIPVIGPANYAQKFQGRITITADESTSTAYMELSSLRFDDTAIYYCVRDDNEYWGQGTLVTVSS VL: EMVLTQSPATLSLSPGERATLSCRASQTVSTFLAWYQQKPGQVPRLLVYDISSRANGTPARFSGGGSGTDFTLTISSLELEDFAVYYCQWRSNWPPSLTFGGGTRVEIKR = 97.4
12H5 (antibody, human IgG1, kappa, V domains shown) VH: QVQLIQSGPEVKRPGASVKVSCKASENTFDTHYINWVRQAPGQGLTWLGWLNPTTGKTGFPQKFKGRVILTSDTSLNTAYMEVSRLTSEDTAVYFCARVLKLSDEYNYGFDVWGQGTTVIVSS VL: DIQVTQSPSSLSASIGDRVTITCRASQNILTFINWYQHKPGKAPKLLIYAASVLQNEVPSRFSGSGSGTDFTLTITSLQPDDFGTYYCQQTYLTPQCSFGQGTKVEIKR = 51.3

# context switch: different binder, same IC 50 (ng/ml), ISRE dual luciferase reporter assay
Entry 8H1 (antibody, human IgG1, kappa, V domains shown) VH: QVQLVQSGAEVKKPGASVKVSCKASGQTFTSDDINWVRQAPGQGLEWMGWRNPNTQDTGYAQKFHGRLTLTSNSSISTSYLELSGLRSEDTAVYYCARAGTSTLTGHYFALGVWGQGTTVIVSS VL: DIQLTQSPSSLSASVGDRVTITCQATQDISKYLNWYQQKPGKVPKLLIYETSNLEVGVPSRFSGSGSGTHFTLTISSLQAEDFATYYCQQYENFPFTFGGGTKVEIKR , IC 50 (ng/ml), ISRE dual luciferase reporter assay reported as 29
